- System: MDA-MB-435
- PROTOCOL: NCI tumour cell line growth inhibition, 48 h
Give TGI for every item shown.

Quick check: TGI of C=C(CN(CCN1CCOCC1)CC(=C)c1ccc(C(=O)Nc2ccccc2N)cc1)c1ccc(C(=O)Nc2ccccc2N)cc1 ?
28.5 µM

Subsequent entry: O=C1C(Nc2cccc(O)c2)=C(Sc2ccc(Cl)cc2)C(=O)N1Cc1ccccc1
20 µM

Subsequent entry: CNC(=O)C(NC(=O)[C@H](CC(C)C)NC(=O)[C@@H](S)CCN1C(=O)N(C)C(C)(C)C1=O)C(C)(C)C (some centres undefined)
> 100 µM

Subsequent entry: CCOC(=O)c1[nH]n(-c2ccccc2)c(=O)c1C=NC(=S)C(N)=S
> 100 µM
